test system: B. subtilis DSM402; experiment: Bacterial cytological profiling (BCP) in B. subtilis DSM402; format: cell-based, Bacillus subtilis; settings: interpretation of BCP in B. subtilis
Measurement type: membrane damage

[[record]]
molecule = "CCn1cc(C(=O)O)c(=O)c2cc(F)c(N3CCN(CN4C(=O)C(=O)c5cc(F)ccc54)CC3)cc21 [20a]"
value = "yes"

[[record]]
molecule = "O=C(O)c1cn(C2CC2)c2cc(N3CCNCC3)c(F)cc2c1=O [Cip, ciprofloxacin, reference compound]"
value = "possibly"

[[record]]
molecule = "CCn1cc(C(=O)O)c(=O)c2cc(F)c(N3CCNCC3)cc21 [Nor, norfloxacin, reference compound]"
value = "possibly"

[[record]]
molecule = "CCn1cc(C(=O)O)c(=O)c2cc(F)c(N3CCN(C(=O)CNNC(=O)c4ccncc4)CC3)cc21 [compound 16]"
value = "yes"


----------
assay: in vitro; conditions: human
Measurement type: IC50 at 24 h (µM)
The reply should be a number in µM, with the unit left off.

Query :: For CCn1cc(C(=O)O)c(=O)c2cc(F)c(N3CCNCC3)cc21 [Nor, norfloxacin, reference compound] , what is its reported IC50 at 24 h?
Result :: 48.2

----------
test system: B. subtilis DSM402; experiment: Bacterial cytological profiling (BCP) in B. subtilis DSM402; format: cell-based, Bacillus subtilis; conditions: interpretation of BCP in B. subtilis
Measurement type: membrane damage

[[record]]
compound = "CCCCCCCCCC(=O)N[C@@H](Cc1c[nH]c2ccccc12)C(=O)N[C@H](CC(N)=O)C(=O)N[C@@H](CC(=O)O)C(=O)N[C@@H]1C(=O)NCC(=O)N[C@@H](CCCN)C(=O)N[C@@H](CC(=O)O)C(=O)N[C@H](C)C(=O)N[C@@H](CC(=O)O)C(=O)NCC(=O)N[C@H](CO)C(=O)N[C@@H]([C@H](C)CC(=O)O)C(=O)N[C@@H](CC(=O)c2ccccc2N)C(=O)O[C@@H]1C [Dap, daptomycin, reference compound]"
measurement_type = "membrane damage"
value = "yes"

[[record]]
compound = "CCn1cc(C(=O)O)c(=O)c2cc(F)c(N3CCN(CNc4ccc([N+](=O)[O-])cc4)CC3)cc21 [compound 21]"
measurement_type = "membrane damage"
value = "no"

[[record]]
compound = "CCn1cc(C(=O)O)c(=O)c2cc(F)c(N3CCN(C(=O)CCl)CC3)cc21 [compound 2]"
measurement_type = "membrane damage"
value = "no"


----------
Overview of reported MIC across a group of compounds:
test system: norfloxacin-resistant clinical isolate of E. coli; test: MIC, microdilution, norfloxacin-resistant clinical isolate of E. coli; type: cell-based, Escherichia coli; details: norfloxacin-resistant clinical isolate; read-out: MIC E. coli (norfloxacin-resistant strain)
The reply should be a number in µM, with the unit left off.

Previously resolved entries follow.
[[record]]
compound = "CCn1cc(C(=O)O)c(=O)c2cc(F)c(N3CCN(CN4C(=O)C(=O)c5cc(F)ccc54)CC3)cc21 [20a]"
value = 16.11

[[record]]
compound = "CCn1cc(C(=O)O)c(=O)c2cc(F)c(N3CCN(CN4C(=O)C(=O)c5cc(OC)ccc54)CC3)cc21 [20c]"
value = 1006.88


# next compound below
Query :: For CCn1cc(C(=O)O)c(=O)c2cc(F)c(N3CCN(C(=O)CNNC(=O)c4ccncc4)CC3)cc21 , what is its reported MIC?
Result :: 32.22
